Values were extracted from patent US11242337B2.

Test system: NHE3 (Homo sapiens, UniProt P48764)
Construct: expressed in transfected cells
Procedure summary: Cell-based assay of NHE-3 activity (pre-incubation inhibition), human
Test settings: human Preincubation

Smiles repr	% inhibition
C[C@@H]1CN([C@H]2Cc3c(C#N)cc(Cl)cc3[C@@H]2Oc2ccc(S(=O)(=O)N[C@H]3CCN(CCOCCNC(=O)NCCCCNC(=O)NCCOCCN4CC[C@H](NS(=O)(=O)c5ccc(O[C@H]6c7cc(Cl)cc(C#N)c7C[C@@H]6N6CCN[C@H](C)C6)cc5)C4)C3)cc2)CCN1	C (>70%)
Cc1cc(S(=O)(=O)NCCOCCOCCNC(=O)NCCCCNC(=O)NCCOCCOCCNS(=O)(=O)c2ccc(O[C@H]3c4cc(Cl)cc(Cl)c4C[C@@H]3N3CCN(C(=O)N(C)C)CC3)c(C)c2)ccc1O[C@H]1c2cc(Cl)cc(Cl)c2C[C@@H]1N1CCN(C(=O)N(C)C)CC1	C (>70%)
Cc1cc(S(=O)(=O)NCCOCCOCCNC(=O)NCCCCNC(=O)NCCOCCOCCNS(=O)(=O)c2ccc(O[C@H]3c4cc(Cl)cc(Cl)c4C[C@@H]3N3CCN(C)CC3)c(C)c2)ccc1O[C@H]1c2cc(Cl)cc(Cl)c2C[C@@H]1N1CCN(C)CC1	C (>70%)

###

Test system: NHE3 (Homo sapiens, UniProt P48764)
Construct: expressed in transfected cells
Procedure summary: Cell-based assay of NHE-3 activity (persistent inhibition), human
Test settings: human Persistence, 60 min incubation then washout

Compound	pIC50
N#Cc1cc(Cl)cc2c1C[C@H](N1CCNCC1)[C@H]2Oc1ccc(S(=O)(=O)N[C@@H]2CCN(CCOCCNC(=O)NCCCCNC(=O)NCCOCCN3CC[C@@H](NS(=O)(=O)c4ccc(O[C@H]5c6cc(Cl)cc(C#N)c6C[C@@H]5N5CCNCC5)cc4)C3)C2)cc1 [Example 108]	C (NHE3 pIC50 > 7)
Cc1cc(S(=O)(=O)N[C@@H]2CCN(CCOCCNC(=O)NCCCCNC(=O)NCCOCCN3CC[C@@H](NS(=O)(=O)c4ccc(O[C@H]5c6cc(Cl)cc(Cl)c6C[C@@H]5N(C)C)c(C)c4)C3)C2)ccc1O[C@H]1c2cc(Cl)cc(Cl)c2C[C@@H]1N(C)C [Example 53]	C (NHE3 pIC50 > 7)
CN(C)[C@H]1Cc2c(Cl)cc(Cl)cc2[C@@H]1Oc1ccc(S(=O)(=O)N[C@H]2CCN(CCOCCNC(=O)NCCCCNC(=O)NCCOCCN3CC[C@H](NS(=O)(=O)c4ccc(O[C@H]5c6cc(Cl)cc(Cl)c6C[C@@H]5N(C)C)c(F)c4)C3)C2)cc1F [Example 111, (trifluoroacetate)]	C (NHE3 pIC50 > 7)

###

Test system: NHE3 (Homo sapiens, UniProt P48764)
Construct: expressed in transfected cells
Sequence (P48764 26-834): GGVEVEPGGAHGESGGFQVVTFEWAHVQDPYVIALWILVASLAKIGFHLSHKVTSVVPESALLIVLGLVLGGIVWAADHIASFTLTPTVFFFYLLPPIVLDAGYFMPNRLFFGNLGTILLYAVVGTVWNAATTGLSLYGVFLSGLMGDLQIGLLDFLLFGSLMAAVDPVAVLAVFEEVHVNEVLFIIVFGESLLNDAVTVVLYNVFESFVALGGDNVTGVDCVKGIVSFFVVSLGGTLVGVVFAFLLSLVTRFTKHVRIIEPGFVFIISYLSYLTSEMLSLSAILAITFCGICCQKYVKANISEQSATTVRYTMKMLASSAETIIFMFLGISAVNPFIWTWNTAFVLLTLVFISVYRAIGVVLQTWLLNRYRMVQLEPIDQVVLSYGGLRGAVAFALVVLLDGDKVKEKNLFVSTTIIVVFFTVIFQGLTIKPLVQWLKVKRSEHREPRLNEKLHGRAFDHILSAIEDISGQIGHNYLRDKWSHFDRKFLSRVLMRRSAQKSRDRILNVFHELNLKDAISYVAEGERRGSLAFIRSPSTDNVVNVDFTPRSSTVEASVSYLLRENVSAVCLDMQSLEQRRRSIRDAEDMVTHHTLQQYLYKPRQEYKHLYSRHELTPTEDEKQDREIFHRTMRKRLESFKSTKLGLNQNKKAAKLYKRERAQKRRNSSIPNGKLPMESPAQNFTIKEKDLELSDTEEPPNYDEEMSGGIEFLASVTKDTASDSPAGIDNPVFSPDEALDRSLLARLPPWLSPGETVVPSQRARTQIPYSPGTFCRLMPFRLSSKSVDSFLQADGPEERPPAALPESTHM
Sequence (Q99653 2-195 partner limits assumed): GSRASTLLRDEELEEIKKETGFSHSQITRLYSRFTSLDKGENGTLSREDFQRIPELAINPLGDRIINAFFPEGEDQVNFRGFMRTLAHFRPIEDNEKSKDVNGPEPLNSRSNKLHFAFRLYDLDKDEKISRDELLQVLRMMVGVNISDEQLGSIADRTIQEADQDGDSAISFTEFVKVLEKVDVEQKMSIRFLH
Procedure summary: Cell-based assay of NHE-3 activity (pre-incubation inhibition), human
Test settings: human Preincubation, 0-30 μM test compound
pIC50: −log10 of the molar value.
Provide the reported pIC50 of each item.

Compound	pIC50
N[C@@H]1CCCN([C@H]2Cc3c(Cl)cc(Cl)cc3[C@@H]2Oc2ccc(S(=O)(=O)NCCCCn3cc(CNC(=O)NCCCCNC(=O)NCc4cn(CCCCNS(=O)(=O)c5ccc(O[C@H]6c7cc(Cl)cc(Cl)c7C[C@@H]6N6CCC[C@@H](N)C6)cc5)nn4)nn3)cc2)C1 [Example 58]	> 7.00
Cc1cc(S(=O)(=O)NCCOCCOCCNC(=O)NCCCCNC(=O)NCCOCCOCCNS(=O)(=O)c2ccc(O[C@H]3c4cc(Cl)cc(Cl)c4C[C@@H]3N3CCN(C)CC3)c(C)c2)ccc1O[C@H]1c2cc(Cl)cc(Cl)c2C[C@@H]1N1CCN(C)CC1 [Example 73]	6.00 to 7.00
COc1cc(Cl)cc2c1C[C@H](N(C)C)[C@H]2Oc1ccc(S(=O)(=O)NCCOCCOCCNC(=O)NCCCCNC(=O)NCCOCCOCCNS(=O)(=O)c2ccc(O[C@H]3c4cc(Cl)cc(OC)c4C[C@@H]3N(C)C)cc2)cc1 [Example 15]	6.00 to 7.00

In: I would be grateful if you could share the reported pIC50 for N#Cc1cc(Cl)cc2c1C[C@H](N1CCCNCC1)[C@H]2Oc1ccc(S(=O)(=O)N[C@@H]2CCN(CCOCCNC(=O)NCCCCNC(=O)NCCOCCN3CC[C@@H](NS(=O)(=O)c4ccc(O[C@H]5c6cc(Cl)cc(C#N)c6C[C@@H]5N5CCCNCC5)cc4)C3)C2)cc1 [Example 127, bis(trifluoroacetic acid)] .
Out: > 7.00
